Molecular target: T1, CLL-1 on the surface of CLL-1-positive AML cell lines (HL-60 WT, U937) (human, UniProt Q5QGZ9 1-265)
T1 construct: whole, on cells; also called HL-60 WT cells; U937 cells
T1 sequence (looked up): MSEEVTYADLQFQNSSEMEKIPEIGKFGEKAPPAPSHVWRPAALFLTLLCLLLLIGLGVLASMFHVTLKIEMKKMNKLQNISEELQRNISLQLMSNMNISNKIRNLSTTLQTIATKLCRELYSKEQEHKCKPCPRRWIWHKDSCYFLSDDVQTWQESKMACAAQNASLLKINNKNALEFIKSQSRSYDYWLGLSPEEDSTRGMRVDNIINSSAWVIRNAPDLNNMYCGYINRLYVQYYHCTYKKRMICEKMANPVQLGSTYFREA
Experiment: multi-point flow cytometry on HL-60 WT cells, FLAG-tagged binder, anti-FLAG AlexaFluor 488
pEC50: −log10 of the molar value.
readout-label: pEC50

>  <binder>
Anti-CLL-1 Binder Clone 12 (scFv, scFv (VL-linker-VH); not shown: FLAG tag) scFv: DIQMTQSPSSLSASVGDRVTITCQASQDISNYLNWYQQKPGKAPKLLIYDASNLETGVPSRFSGSGSGTDFTLTISSPQPEDLATYYCQQANSFPFTFGQGTKVEIKGGGGSGGGGSGGGGSQVQLVQSGAEVKKPGSSVKVSCKASGYSFTRNDITWVRQANGRGLEWLGRLNPNNGDTVYAEVFQGRVAMTRDTSTDTAYMELASLKSDDTAVYFCARGFWSFDVWGQGTMVTVSS

>  <quantitative-result>
9.70

$$$$
>  <binder>
Anti-CLL-1 Binder Clone 6 (scFv, scFv (VL-linker-VH); not shown: FLAG tag) scFv: QSVLTQPPSVSAAPGQKVSIFCSGGSSNIGKNYVSWYQQLPGTAPKLLIYENQHRPSGIPDRFSGSKSGTSATLGITGLQTGDEADYYCATWDDSLSAGVFGGGTELTVLGGGGSGGGGSGGGGSQLVQSGAEVRKPGESLKISCKGSGYSFTSYWIGWVRQMPGKGLEWMGFIYPGDSDTRYSPSFQGQVTISADKSISTAYLQRSSLKASDTAMYYCARLGGYSGYDSEVFYLDYWGQGTTVTVSS

>  <quantitative-result>
7.23

$$$$
>  <binder>
Anti-CLL-1 Binder Clone 2 (scFv, scFv (VL-linker-VH); not shown: FLAG tag) scFv: QSVLTQPLSVSVALGQTARITCGGNNIGSKNVHWYQQKAGQAPVLVIQRDSNRPSGIPERFSGSNSGNTATLTISRAQAGDEADYFCQVWDSNTYVFGTGTKLTVLGGGGSGGGGSGGGGSEVQLVESGGGLVKPGGSLRLSCAASGFTFSDYYMSWIRQAPGKGLEWVSYISSSGSTIYYADSVKGRFTISRDNAKNSLYLQMNSLRDEDTAVYYCARQSAEIVGAFDHWGQGTMVTVSS

>  <quantitative-result>
8.74

$$$$
